# IC50 measurements, system: Sodium-dependent noradrenaline transporter (Homo sapiens, UniProt P23975)
# Sequence (P23975 whole entry): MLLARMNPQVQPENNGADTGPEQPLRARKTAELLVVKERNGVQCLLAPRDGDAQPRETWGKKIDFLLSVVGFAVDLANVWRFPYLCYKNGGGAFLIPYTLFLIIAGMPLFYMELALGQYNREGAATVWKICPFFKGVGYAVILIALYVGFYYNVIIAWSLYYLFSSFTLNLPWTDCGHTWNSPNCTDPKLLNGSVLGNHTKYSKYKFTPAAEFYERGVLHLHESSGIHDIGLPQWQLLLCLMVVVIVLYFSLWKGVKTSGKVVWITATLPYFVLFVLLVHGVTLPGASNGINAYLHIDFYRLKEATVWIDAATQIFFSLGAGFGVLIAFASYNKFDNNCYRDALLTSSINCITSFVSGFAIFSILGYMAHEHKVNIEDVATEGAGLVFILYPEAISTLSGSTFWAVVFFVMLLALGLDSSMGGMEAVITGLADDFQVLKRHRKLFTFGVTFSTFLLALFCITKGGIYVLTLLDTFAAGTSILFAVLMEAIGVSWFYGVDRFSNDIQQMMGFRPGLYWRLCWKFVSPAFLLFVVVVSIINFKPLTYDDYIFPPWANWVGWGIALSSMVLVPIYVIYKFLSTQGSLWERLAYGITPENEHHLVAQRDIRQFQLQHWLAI
Numbers only, in µM.

## Task Input OC[C@@H]1OC[C@@H](O[C@@H]2O[C@@H](CO)[C@@H](O)[C@@H](OCc3ccccc3)[C@@H]2O)[C@H](O)[C@H]1O [POLYGALATENOSIDE B] , output reported IC50.
## Result 6.04

# ---- query compound ----
## Task Input OC[C@@H]1OC[C@@H](O[C@@H]2O[C@@H](COCc3ccccc3)[C@@H](O)[C@@H](O)[C@@H]2O)[C@H](O)[C@H]1O [POLYGALATENOSIDE A] , output reported IC50.
## Result 30
